Tested on: Severe acute respiratory syndrome coronavirus 2
Experiment: Binding affinity to 5'-CY5-labelled SARS-CoV-2 frameshift element RNA by SPR analysis
Activity calls are given as the source filed them. The calls are words filed in the database; no cut-off is given here.
Valid outcomes are listed here; reply with one: True (active), False (inactive)

How was COc1ccc(-c2nc(NCCN3CCOCC3)c3cc(-c4cn[nH]c4)ccc3n2)cc1 classified in this test?
True

Others:
How was COc1ccc(-c2nc(NCCN3CCOCC3)c3cc(-c4ccc(S(N)(=O)=O)cc4)ccc3n2)cc1 classified in this test?
True

How was FC(F)(F)c1ccc(-c2nc(NCCN3CCOCC3)c3ccccc3n2)cc1 classified in this test?
True

How was CC#CCOc1ccc(-c2nc(NCCN3CCOCC3)c3ccccc3n2)cc1 classified in this test?
False

How was COc1ccc(-c2nc(NCCN3CCOCC3)c3c(OC)cccc3n2)cc1 classified in this test?
True

---

Test system: Severe acute respiratory syndrome coronavirus 2
Experiment: Binding affinity to 5'-CY5-labelled SARS-CoV-2 frameshift element RNA by SPR analysis
The source made the active and inactive calls. No cut-off for these calls is given here.
Valid outcomes are listed here; reply with one: active, inactive

Previously resolved entries follow.
How was COc1ccc(-c2nc(NCCN3CCOCC3)c3ccc(-c4cn[nH]c4)cc3n2)cc1 classified in this test?
active

How was COc1ccc(-c2nc(NCCN3CCN(C)CC3)c3ccccc3n2)cc1 classified in this test?
active

How was COc1ccc(-c2nc(NCCN3CCOCC3)c3cc(OC)ccc3n2)cc1 classified in this test?
active

How was COc1ccc(-c2nc(NCCN3CCOCC3)c3ccc(C(F)(F)F)cc3n2)cc1 classified in this test?
inactive

How was COc1ccc(-c2nc(N3CC(N4CCOCC4)C3)c3ccccc3n2)cc1 classified in this test?
active

Others:
How was COc1ccc(-c2nc(NCCS(=O)(=O)N3CCOCC3)c3ccccc3n2)cc1 classified in this test?
active

How was COc1ccc(-c2nc(NCCN3CCOCC3)c3cccc(OC)c3n2)cc1 classified in this test?
active

---

Assay: Binding affinity to 5'-CY5-labelled SARS-CoV-2 frameshift element RNA assessed as dissociation constant by MST analysis
Design: species or system Severe acute respiratory syndrome coronavirus 2
PARAMETER MEASURED: Kd
Reply with the number, then its unit.

In one line, give reported Kd of the entry COc1ccc(-c2nc(NCCN3CCOCC3)c3ccccc3n2)cc1 .
139 µM

---

Tested on: Reticulocyte
Experiment: Binding affinity to wild-type Rous sarcoma virus frameshift element RNA pseudoknot sequence transfected with Renilla/Firefly luciferase in rabbit reticulocyte lysate assessed as frameshifting by measuring ratio of renilla/firefly luminescence by dual-luciferase reporter assay
Type: subcellular
Hi there, I'd appreciate the recorded Ratio for every entry that follows.
Numbers only.

Here is how some compounds turned out for Ratio.
// output Ratio; input CCNCC1CCN(c2c(F)cc3c(=O)c(C(=O)O)cn(CC)c3c2F)C1 (centres undefined) ; system Reticulocyte
0.59

// output Ratio; input COc1ccc(-c2nc(NCCN3CCOCC3)c3ccccc3n2)cc1 ; system Reticulocyte
1.21

// output Ratio; input COc1ccc(-c2nc(NCCN3CCOCC3)c3cc(OC)ccc3n2)cc1 ; system Reticulocyte
1.13

Continue with the compound presented below.
// output Ratio; input CCOC(=O)c1ccccc1NC(=O)N1CCCN(Cc2csc(C)n2)CC1 ; system Reticulocyte
1.13

---

Test system: Reticulocyte
Experiment: Binding affinity to wild-type SARS-CoV-2 frameshift element RNA pseudoknot sequence transfected with Renilla/Firefly luciferase in rabbit reticulocyte lysate assessed as translation by measuring ratio of renilla luminescence by dual-luciferase reporter assay
Format: subcellular
Details: Severe acute respiratory syndrome coronavirus 2
Hi there, I'd appreciate the recorded Ratio for every entry that follows.
One number for each entry.

Here is how some compounds turned out for Ratio.
In one line, give reported Ratio of the entry COc1ccc(-c2nc(NCCN3CCOCC3)c3ccccc3n2)cc1 .
1.35

In one line, give reported Ratio of the entry CCNCC1CCN(c2c(F)cc3c(=O)c(C(=O)O)cn(CC)c3c2F)C1 (centres undefined) .
0.9

In one line, give reported Ratio of the entry COc1ccc(-c2nc(NCCN3CCOCC3)c3cc(OC)ccc3n2)cc1 .
0.98

Continue with the compound presented below.
In one line, give reported Ratio of the entry CCOC(=O)c1ccccc1NC(=O)N1CCCN(Cc2csc(C)n2)CC1 .
1.01

---

Tested on: Severe acute respiratory syndrome coronavirus 2
Test: Binding affinity to 5'-CY5-labelled SARS-CoV-2 frameshift element RNA by SPR analysis
Active and inactive are the calls of the source. The calls are words filed in the database; no cut-off is given here.
PARAMETER MEASURED: Activity

Here is how some compounds turned out for Activity.
In one line, give reported Activity of the entry COc1ccc(-c2nc(NCCN3CCOCC3)c3cc([N+](=O)[O-])ccc3n2)cc1 .
inactive

In one line, give reported Activity of the entry O=[N+]([O-])c1ccc(-c2nc(NCCN3CCOCC3)c3ccccc3n2)cc1 .
inactive

In one line, give reported Activity of the entry COc1cccc(-c2nc(NCCN3CCOCC3)c3ccccc3n2)c1 .
inactive

In one line, give reported Activity of the entry COc1ccc(-c2nc(NCCN3CCOCC3)c3ccc(-c4ccc(S(N)(=O)=O)cc4)cc3n2)cc1 .
inactive

In one line, give reported Activity of the entry COc1ccc(-c2nc(NCCN3CCOCC3)c3cc(C(F)(F)F)ccc3n2)cc1 .
inactive

In one line, give reported Activity of the entry COc1ccc(-c2nc(NCCN3CCOCC3)c3ccccc3n2)cc1 .
Active

Hi, could you look up Activity for each item in my list?
1. COc1ccc(-c2nc(NCCN3CCOCC3)c3ccc([N+](=O)[O-])cc3n2)cc1
2. CCN(CCN1CCOCC1)c1nc(-c2ccc(OC)cc2)nc2ccccc12
3. COc1ccc(-c2nc(NCCN3CCOCC3)c3cc(OC)c(OC)cc3n2)cc1
4. COc1ccc(-c2nc(NCCN3CCOCC3)c3ccc(OC)cc3n2)cc1

1: inactive; 2: Active; 3: Active; 4: Active

---

System: Reticulocyte
Assay: Binding affinity to wild-type SARS-CoV-2 frameshift element RNA pseudoknot sequence transfected with Renilla/Firefly luciferase in rabbit reticulocyte lysate assessed as frameshifting by measuring ratio of renilla/firefly luminescence by dual-luciferase reporter assay
Assay type: subcellular
Conditions: Severe acute respiratory syndrome coronavirus 2
Hi there, I'd appreciate the recorded Ratio for every entry that follows.
Give bare numbers.

Here is how some compounds turned out for Ratio.
In one line, give reported Ratio of the entry COc1ccc(-c2nc(NCCN3CCOCC3)c3ccccc3n2)cc1 .
0.99

In one line, give reported Ratio of the entry CCOC(=O)c1ccccc1NC(=O)N1CCCN(Cc2csc(C)n2)CC1 .
1.02

In one line, give reported Ratio of the entry COc1ccc(-c2nc(NCCN3CCOCC3)c3cc(OC)ccc3n2)cc1 .
0.98

Continue with the compound presented below.
In one line, give reported Ratio of the entry CCNCC1CCN(c2c(F)cc3c(=O)c(C(=O)O)cn(CC)c3c2F)C1 (centres undefined) .
0.21

---

Tested on: Severe acute respiratory syndrome coronavirus 2
Test: Binding affinity to 5'-CY5-labelled SARS-CoV-2 frameshift element RNA by MST analysis
Calls of active or inactive are those of the source. No cut-off for these calls is given here.
Valid outcomes are listed here; reply with one: active, inactive

How was CCOC(=O)c1ccccc1NC(=O)N1CCCN(Cc2csc(C)n2)CC1 classified in this test?
active

How was COc1ccc(-c2nc(NCCN3CCOCC3)c3ccccc3n2)cc1 classified in this test?
active

How was COc1ccc(-c2nc(NCCN3CCOCC3)c3ccc(OC)cc3n2)cc1 classified in this test?
active

How was COc1ccc(-c2nc(NCCN3CCOCC3)c3cc([N+](=O)[O-])ccc3n2)cc1 classified in this test?
inactive

How was COc1ccc(-c2nc(NCCN3CCOCC3)c3cc(OC)ccc3n2)cc1 classified in this test?
active

Others:
How was COc1ccc(-c2nc(NCCN3CCOCC3)c3cc(-c4ccc(S(N)(=O)=O)cc4)ccc3n2)cc1 classified in this test?
inactive

How was FC(F)(F)c1ccc(-c2nc(NCCN3CCOCC3)c3ccccc3n2)cc1 classified in this test?
inactive

---

System: Severe acute respiratory syndrome coronavirus 2
Assay: Binding affinity to 5'-CY5-labelled SARS-CoV-2 frameshift element RNA by SPR analysis
Calls of active or inactive are those of the source. The calls are words filed in the database; no cut-off is given here.
PARAMETER MEASURED: Activity

In one line, give reported Activity of the entry COc1ccccc1-c1nc(NCCN2CCOCC2)c2ccccc2n1 .
Active

In one line, give reported Activity of the entry COc1ccc(-c2nc(NCCN3CCOCC3)c3cc(-c4ccc(N5CCOCC5)c(C)c4)ccc3n2)cc1 .
Active

---

Tested on: Severe acute respiratory syndrome coronavirus 2
Assay: Binding affinity to 5'-CY5-labelled SARS-CoV-2 frameshift element RNA by MST analysis
Activity calls are given as the source filed them. No cut-off for these calls is given here.
Valid outcomes are listed here; reply with one: y (active), n (inactive)

Previously resolved entries follow.
How was CC#CCOc1ccc(-c2nc(NCCN3CCOCC3)c3ccccc3n2)cc1 classified in this test?
n

How was COc1cccc(-c2nc(NCCN3CCOCC3)c3ccccc3n2)c1 classified in this test?
n

How was CCN(CCN1CCOCC1)c1nc(-c2ccc(OC)cc2)nc2ccccc12 classified in this test?
n

How was COc1ccc(-c2nc(NCCN3CCOCC3)c3c(OC)cccc3n2)cc1 classified in this test?
n

How was COc1ccc(-c2nc(NCCN3CCOCC3)c3ccc(-c4ccc(S(N)(=O)=O)cc4)cc3n2)cc1 classified in this test?
n

How was COc1ccc(-c2nc(NCCS(=O)(=O)N3CCOCC3)c3ccccc3n2)cc1 classified in this test?
n

How was COc1ccc(-c2nc(NCCN3CCOCC3)c3ccc(C(F)(F)F)cc3n2)cc1 classified in this test?
y

How was COc1ccc(-c2nc(NCCN3CCOCC3)c3cc(OC)c(OC)cc3n2)cc1 classified in this test?
y

Others:
How was COc1ccc(F)cc1COc1ccc(-c2nc(NCCN3CCOCC3)c3ccccc3n2)cc1 classified in this test?
n

How was COc1ccc(-c2nc(NCCN3CCOCC3)c3cc(-c4cn[nH]c4)ccc3n2)cc1 classified in this test?
n

How was COc1ccc(-c2nc(NCCN3CCN(C)CC3)c3ccccc3n2)cc1 classified in this test?
y

How was CCNCC1CCN(c2c(F)cc3c(=O)c(C(=O)O)cn(CC)c3c2F)C1 (stereo not given) classified in this test?
y

How was COc1ccccc1-c1nc(NCCN2CCOCC2)c2ccccc2n1 classified in this test?
n
